Values were extracted from paper PMC8391127.

# ASSAY OVERVIEW: Cytotoxicity screening test
# Assay type: cell-based
# CONDITIONS: human, HeLa cervical carcinoma cells
pIC50: −log10 of the molar value.
ENDPOINT: pIC50

>  <COMPOUND>
CC1(C)C=C2C3CC[C@@H]4[C@@]5(C)CC[C@H](OCc6cn(CCOCCOCCOCCNC(=O)[C@]78CCC(C)(C)C=C7[C@H]7CC[C@@H]9[C@@]%10(C)CCC(=O)C(C)(C)[C@@H]%10CC[C@@]9(C)[C@]7(C)CC8)nn6)C(C)(C)[C@@H]5CC[C@@]4(C)[C@]3(C)CC[C@@]2(C(=O)O)CC1 (stereo partly shown)

>  <RESULT>
< 4.30

$$$$
